- measured_target: Apelin receptor (Homo sapiens)
- experiment_notes: apelin receptor inhibitor analogs – cell-based, luminescence, set 2, SAR follow-up (AID 488803)
- experimental_parameters: CHO-K1 APJ PathHunter beta-arrestin, antagonist
The source made the active and inactive calls.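 How the source made its calls: active means mean IC50 below 10 µM; inactive means the rest.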
The reply should name one outcome from active, inactive

compound: CC(C)(C)c1ccc(C(=O)Oc2coc(CSc3ncccn3)cc2=O)cc1
measured_target: Apelin receptor (Homo sapiens)
assigned_label: inactive
--
compound: Cc1ccnc(SCc2cc(=O)c(OC(=O)c3ccc(S(=O)(=O)N4CCCC4)cc3)co2)n1
measured_target: Apelin receptor (Homo sapiens)
assigned_label: inactive
--
compound: Cc1ccnc(SCc2cc(=O)c(OC(=O)c3ccc(F)cc3)co2)n1
measured_target: Apelin receptor (Homo sapiens)
assigned_label: inactive
--
compound: Cc1ccc(C)c(NCC(O)c2ccc(Cl)cc2)c1 (configuration not stated)
measured_target: Apelin receptor (Homo sapiens)
assigned_label: inactive
--
compound: O=C(Oc1coc(CSc2ncccn2)cc1=O)c1cccc([N+](=O)[O-])c1
measured_target: Apelin receptor (Homo sapiens)
assigned_label: inactive

QUERY: What outcome does the record of this test show for CC1(C)CC2(CC(c3ccccc3Cl)c3ccc(OC(=O)c4ccccc4)cc3O2)NC(=S)N1 (configuration not stated) ?
RESULT: inactive

QUERY: How was `CCOc1ccc(C(=O)Oc2coc(CSc3ncccn3)cc2=O)cc1` classified in this test?
RESULT: inactive

QUERY: Could you kindly confirm the outcome this assay logged for `Cc1c(C(=O)Oc2coc(CSc3ncccn3)cc2=O)cccc1[N+](=O)[O-]` ?
RESULT: inactive

QUERY: State the result this test recorded for `Cc1cc(C)nc(SCc2cc(=O)c(OC(=O)c3cccc([N+](=O)[O-])c3C)co2)n1` .
RESULT: inactive

QUERY: Give the logged outcome of this assay for the following compound: Cc1ccccc1C1CC2(CC(C)(C)NC(=S)N2)Oc2cc(O)c(Cl)cc21 (configuration not stated)
RESULT: inactive

QUERY: Given `Cc1cc(C)nc(SCc2cc(=O)c(OC(=O)c3ccc(Cl)c([N+](=O)[O-])c3)co2)n1` , state the outcome it received in this test.
RESULT: active

QUERY: # fetch the recorded call for `CN(C)S(=O)(=O)c1ccc(C(=O)Oc2coc(CSc3ncccn3)cc2=O)cc1` here
RESULT: inactive

###

- measured_target: Apelin receptor (Homo sapiens) (UniProt P35414)
- Sequence (P35414 whole entry, looked up): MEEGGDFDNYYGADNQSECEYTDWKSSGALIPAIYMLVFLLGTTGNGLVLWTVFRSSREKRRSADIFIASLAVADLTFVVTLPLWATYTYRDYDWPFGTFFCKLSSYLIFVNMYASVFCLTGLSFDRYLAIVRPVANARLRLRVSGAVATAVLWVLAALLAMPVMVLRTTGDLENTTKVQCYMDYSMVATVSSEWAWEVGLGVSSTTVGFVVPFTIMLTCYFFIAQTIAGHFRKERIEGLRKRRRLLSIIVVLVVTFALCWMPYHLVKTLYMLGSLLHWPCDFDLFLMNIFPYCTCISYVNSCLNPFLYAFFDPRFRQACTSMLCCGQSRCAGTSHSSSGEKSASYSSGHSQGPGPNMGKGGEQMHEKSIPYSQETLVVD
- experiment_notes: apelin receptor inhibitor analogs – cell-based, luminescence, set 2, SAR follow-up (AID 488803)
- experimental_parameters: CHO-K1 APJ PathHunter beta-arrestin, antagonist
Calls of active or inactive are those of the source.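 How the source made its calls: active means mean IC50 below 10 µM; inactive means the rest.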
Pick from active, inactive when you respond.

Example results:
compound: Cc1cc(C)nc(SCc2cc(=O)c(OC(=O)c3cc([N+](=O)[O-])ccc3Cl)co2)n1
measured_target: Apelin receptor (Homo sapiens) (UniProt P35414)
assigned_label: inactive

compound: CC1(C)CC2(CC(c3ccccc3Cl)c3ccc(O)cc3O2)NC(=O)N1 (stereo unspecified)
measured_target: Apelin receptor (Homo sapiens) (UniProt P35414)
assigned_label: inactive

compound: Cc1cc(C)nc(SCc2cc(=O)c(OC(=O)c3ccc(S(=O)(=O)N(C)C)cc3)co2)n1
measured_target: Apelin receptor (Homo sapiens) (UniProt P35414)
assigned_label: inactive

QUERY: What classification did `Cc1ccc(C(=O)Oc2coc(CSc3nccc(C)n3)cc2=O)cc1` end up with in this test?
RESULT: inactive

QUERY: What call does the record list for `CSc1cccc(N=C2C(=O)Nc3ccccc32)c1` ?
RESULT: active

QUERY: Call for entry `COc1cc(CSc2nc(C)cc(C)n2)ccc1O` :
RESULT: inactive

QUERY: Test call for this compound, please: `O=C(Oc1coc(CSc2ncccn2)cc1=O)c1ccc(Br)cc1`
RESULT: inactive

###

- measured_target: Apelin receptor (Homo sapiens)
- experiment_notes: apelin receptor inhibitor analogs – cell-based, luminescence, set 2, SAR follow-up (AID 488803)
- experimental_parameters: CHO-K1 APJ PathHunter beta-arrestin, antagonist
Active and inactive are the calls of the source.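 The calls were made as follows: active = mean IC50 below 10 µM; inactive = the rest.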
Output constraint: value belongs to active, inactive

compound: Cc1cc(C)nc(SCc2cc(=O)c(OC(=O)c3cc(Cl)ccc3[N+](=O)[O-])co2)n1
assigned_label: inactive

compound: Cc1ccnc(SCc2cc(=O)c(OC(=O)c3ccco3)co2)n1
assigned_label: inactive

compound: Cc1cc(C)nc(SCc2ccc(O)c(Cl)c2)n1
assigned_label: inactive

compound: COc1ccc(NC2C(=O)Nc3ccccc32)cc1 (stereo not drawn)
assigned_label: inactive

compound: CC1(C)CC2(CC(c3ccc(F)cc3)c3ccc(O)cc3O2)NC(=S)N1 (stereo not drawn)
assigned_label: inactive

QUERY: Tell me the assay call for `Cc1ccnc(SCc2cc(=O)c(OC(=O)c3cccc([N+](=O)[O-])c3)co2)n1` please.
RESULT: inactive

QUERY: What classification did `Cc1ccc(N=C2C(=O)Nc3ccccc32)cc1` end up with in this test?
RESULT: inactive

QUERY: Kindly provide the recorded test outcome for the following compound: `Cc1cc(C)nc(SCc2cccc(O)c2)n1`
RESULT: inactive

QUERY: How did this test come out for `C=CCOc1ccc(CSc2nc(C)cc(C)n2)cc1Cl` ?
RESULT: inactive

###

- measured_target: Apelin receptor (Homo sapiens)
- experiment_notes: apelin receptor inhibitor analogs – cell-based, luminescence, set 2, SAR follow-up (AID 488803)
- experimental_parameters: CHO-K1 APJ PathHunter beta-arrestin, antagonist
Active and inactive are the calls of the source.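 The calls were made as follows: active = mean IC50 below 10 µM; inactive = the rest.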
Choose the fitting class; nothing outside 1 = active, 0 = inactive is accepted.

molecule: CC1(C)CC2(CC(c3ccccc3Cl)c3ccc(O)cc3O2)NC(=S)N1 (stereo not given)
measured_target: Apelin receptor (Homo sapiens)
assigned_label: 1
//
molecule: Cc1ccnc(SCc2cc(=O)c(OC(=O)c3ccc(C)c([N+](=O)[O-])c3)co2)n1
measured_target: Apelin receptor (Homo sapiens)
assigned_label: 1
//
molecule: Cc1ccnc(SCc2cc(=O)c(OC(=O)c3ccc(OC(F)(F)F)cc3)co2)n1
measured_target: Apelin receptor (Homo sapiens)
assigned_label: 0
//
molecule: O=C(Oc1coc(CSc2ncccn2)cc1=O)c1ccc(Cl)cc1
measured_target: Apelin receptor (Homo sapiens)
assigned_label: 0
//
molecule: COc1ccccc1NC(=O)CN1C(=O)C(=O)c2ccccc21
measured_target: Apelin receptor (Homo sapiens)
assigned_label: 0
//
molecule: COc1ccccc1NCC(=O)c1ccc(Cl)cc1
measured_target: Apelin receptor (Homo sapiens)
assigned_label: 1
//
molecule: Cc1ccnc(SCc2cc(=O)c(OC(=O)c3cccc(Cl)c3)co2)n1
measured_target: Apelin receptor (Homo sapiens)
assigned_label: 0
//
molecule: O=C(Oc1coc(CSc2ncccn2)cc1=O)c1ccc(S(=O)(=O)N2CCCC2)cc1
measured_target: Apelin receptor (Homo sapiens)
assigned_label: 0

QUERY: State the result this test recorded for `CC(C)Oc1ccc(C(=O)Oc2coc(CSc3ncccn3)cc2=O)cc1` .
RESULT: 0

QUERY: Assay outcome for C=CCSC1=NC2(CC(c3ccccc3)c3c(C)cc(O)cc3O2)CC(C)(C)N1 (stereo not given) : what was it?
RESULT: 0

###

- measured_target: Apelin receptor (Homo sapiens) (UniProt P35414)
- experiment_notes: apelin receptor inhibitor analogs – cell-based, luminescence, set 2, SAR follow-up (AID 488803)
- experimental_parameters: CHO-K1 APJ PathHunter beta-arrestin, antagonist
The source made the active and inactive calls.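 Rule for the calls: active = mean IC50 below 10 µM; inactive = the rest.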
Listed here are compounds together with their documented IC50.

Here's what some known entries look like.
smiles_data: N#Cc1ccc(C(=O)Oc2coc(CSc3ncccn3)cc2=O)cc1
endpoint_result: 6.59 µM
--
smiles_data: O=c1cc(CCl)occ1O
endpoint_result: > 79 µM (inactive)
--
smiles_data: COc1ccc(C(=O)Oc2coc(CSc3nccc(C)n3)cc2=O)cc1
endpoint_result: > 79 µM (inactive)
--
smiles_data: Cc1ccnc(S(=O)(=O)Cc2cc(=O)c(OC(=O)c3ccc(Cl)c([N+](=O)[O-])c3)co2)n1
endpoint_result: 3.21 µM

QUERY: Complete the entry with IC50 for `O=C(Oc1coc(CSc2ncccn2)cc1=O)c1cc(Cl)ccc1[N+](=O)[O-]`
RESULT: > 79 µM (inactive)

###

- measured_target: Apelin receptor (Homo sapiens) (UniProt P35414)
- experiment_notes: apelin receptor inhibitor analogs – cell-based, luminescence, set 2, SAR follow-up (AID 488803)
- experimental_parameters: CHO-K1 APJ PathHunter beta-arrestin, antagonist
Activity calls are given as the source filed them.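 The calls were made as follows: active = mean IC50 below 10 µM; inactive = the rest.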
Response enum: active, inactive

QUERY: Please indicate how the test categorized `C=CCOc1ccc(CSc2nc(C)cc(C)n2)cc1OC` .
RESULT: inactive

QUERY: // return assay outcome for `Cc1ccccc1NCC(=O)c1ccc(Cl)cc1`
RESULT: active

###

- measured_target: Apelin receptor (Homo sapiens)
- experiment_notes: apelin receptor inhibitor analogs – cell-based, luminescence, set 2, SAR follow-up (AID 488803)
- experimental_parameters: CHO-K1 APJ PathHunter beta-arrestin, antagonist
The source made the active and inactive calls.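 How the source made its calls: active means mean IC50 below 10 µM; inactive means the rest.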
Pick one: true (1) (active), false (0) (inactive)

# example entries with known answers
smiles_data: Cc1ccnc(SCc2cc(=O)c(OC(=O)c3ccc(Cl)cc3)co2)n1
assigned_label: false (0)
--
smiles_data: Cc1cc(C)nc(SCc2ccc(OC(=O)c3ccccc3)c(Cl)c2)n1
assigned_label: false (0)

QUERY: Dear colleague, could you share the recorded outcome for `O=C(Oc1coc(CSc2ccccc2)cc1=O)c1ccc(Cl)c([N+](=O)[O-])c1` when you have a moment?
RESULT: true (1)

QUERY: GET /call?item= `CCCCOc1ccc(C(=O)Oc2coc(CSc3ncccn3)cc2=O)cc1` returns the recorded outcome of this test.
RESULT: false (0)

QUERY: Assay outcome for `CCN(CC)S(=O)(=O)c1ccc(C(=O)Oc2coc(CSc3ncccn3)cc2=O)cc1` : what was it?
RESULT: false (0)

QUERY: What call does the record list for `Cc1cccc(C(=O)Oc2coc(CSc3nccc(C)n3)cc2=O)c1` ?
RESULT: false (0)
